subject.of.test: hNav1.7 (Homo sapiens (Human))
experiment.description: Tritiated compound binding to membranes from cells heterologously expressing hNav1.7 and the β1 subunit (LBA)
condition.label: competitive binding vs [3H]compound, membranes with hNav1.7 and β1 subunit; read-out: Nav1.7 LBA EVO IC50
Each entry below carries its reported IC50.
quantity.name: IC50 (nM)

>>> measured_value("COc1cc(-c2cccc(OC(F)(F)F)c2)c(F)cc1N1C(=O)CO[C@@H]2CN(S(=O)(=O)Nc3ccon3)CC[C@H]21")
62.3
>>> measured_value("COc1cc(-c2cc(F)cc(C(F)(F)F)c2)c(F)cc1N1C(=O)CO[C@@H]2CN(S(=O)(=O)Nc3ccon3)CC[C@H]21")
79
>>> measured_value("COc1cc(-c2ccc(F)c(C(F)(F)F)c2)c(F)cc1N1C(=O)CO[C@H]2CN(S(=O)(=O)Nc3ccon3)CC[C@@H]21")
38.4
>>> measured_value("COc1cc(-c2cccc(C(F)(F)F)c2)c(F)cc1N1C(=O)CC[C@@H]2CN(S(=O)(=O)Nc3ccon3)CC[C@H]21")
49.3
>>> measured_value("COc1cc(-c2cccc(C(F)(F)F)c2)c(F)cc1N1CCO[C@@H]2CN(S(=O)(=O)Nc3ccncn3)CC[C@H]21")
21.2
>>> measured_value("COc1cc(-c2cccc(C(F)F)c2)c(F)cc1N1C(=O)CO[C@H]2CN(S(=O)(=O)Nc3ccon3)CC[C@@H]21")
1390
>>> measured_value("COc1cc(-c2cccc(C(F)(F)F)c2)c(F)cc1N1CCO[C@H]2CN(S(=O)(=O)Nc3ccon3)CC[C@@H]21")
63.6
>>> measured_value("COc1cc(-c2cccc(C(F)(F)F)c2F)c(F)cc1N1C(=O)CO[C@@H]2CN(S(=O)(=O)Nc3ccon3)CC[C@H]21")
230
>>> measured_value("COc1cc(-c2cccc(C(F)(F)F)c2)ccc1N1C(=O)CO[C@H]2CN(S(=O)(=O)Nc3ccon3)CC[C@@H]21")
346
